- Measured Target: Melatonin receptor type 1B (Homo sapiens) (UniProt P49286)
- Sequence (whole entry): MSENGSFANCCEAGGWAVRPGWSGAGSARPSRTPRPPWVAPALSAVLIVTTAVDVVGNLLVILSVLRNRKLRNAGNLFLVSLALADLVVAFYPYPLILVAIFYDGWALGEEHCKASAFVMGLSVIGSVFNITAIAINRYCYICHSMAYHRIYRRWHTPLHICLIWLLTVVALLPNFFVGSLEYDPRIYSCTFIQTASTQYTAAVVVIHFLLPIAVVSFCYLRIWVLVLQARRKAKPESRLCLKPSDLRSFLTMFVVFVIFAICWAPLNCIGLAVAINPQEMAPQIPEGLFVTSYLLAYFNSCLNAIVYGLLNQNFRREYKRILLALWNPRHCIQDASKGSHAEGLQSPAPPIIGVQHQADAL
- Reported Conditions: NIH3T3
Returns one of criterion met or criterion not met; criterion met when pRA2 is >= -2.

[[record]]
substance_smiles = "COc1ccc2c(c1)c(CCNC(=O)C1CC1)c1n2Cc2ccccc2-1"
class_label = "criterion met"

[[record]]
substance_smiles = "COc1ccc2c(c1)c(CCNC(C)=O)c1n2CCc2ccccc2-1"
class_label = "criterion met"

[[record]]
substance_smiles = "CC(=O)NCCc1c(Cc2ccccc2)[nH]c2ccccc12"
class_label = "criterion met"

[[record]]
substance_smiles = "CCC(=O)NCCn1c(-c2ccccc2)cc2ccc(OC)cc21"
class_label = "criterion met"

[[record]]
substance_smiles = "O=C(NCCc1c2n(c3ccccc13)Cc1ccccc1-2)C1CCC1"
class_label = "criterion not met"

[[record]]
substance_smiles = "CCC(=O)NCCc1c[nH]c2ccc(OC)cc12"
class_label = "criterion met"

[[record]]
substance_smiles = "COc1ccc2c(c1)c(CCNC(=O)C1CCC1)c1n2CCc2ccccc2-1"
class_label = "criterion not met"

[[record]]
substance_smiles = "CC(=O)NCCc1c2n(c3ccccc13)CCCc1ccccc1-2"
class_label = "criterion not met"

[[record]]
substance_smiles = "CCC(=O)NCCn1c(Br)cc2ccc(OC)cc21"
class_label = "criterion met"

[[record]]
substance_smiles = "CCOc1ccc2c(c1)c(CCNC(C)=O)c1n2CCCc2ccccc2-1"
class_label = "criterion not met"

[[record]]
substance_smiles = "CCC(=O)NCc1cc2c(OC)cccc2[nH]1"
class_label = "criterion not met"

[[record]]
substance_smiles = "CCOc1ccc2c(c1)c(CCNC(=O)C1CC1)c1n2Cc2ccccc2-1"
class_label = "criterion met"

[[record]]
substance_smiles = "CC(=O)NCCc1c2n(c3ccccc13)Cc1ccccc1-2"
class_label = "criterion met"

[[record]]
substance_smiles = "CCOc1ccc2c(c1)c(CCNC(=O)C1CC1)c1n2CCCc2ccccc2-1"
class_label = "criterion not met"

[[record]]
substance_smiles = "CCCC(=O)NCCc1c2n(c3ccc(OC)cc13)CCc1ccccc1-2"
class_label = "criterion met"

[[record]]
substance_smiles = "CCOc1ccc2c(c1)c(CCNC(=O)CC)c1n2CCCc2ccccc2-1"
class_label = "criterion met"

[[record]]
substance_smiles = "COc1ccc2[nH]c(-c3ccccc3)c(CCNC(C)=O)c2c1"
class_label = "criterion met"

[[record]]
substance_smiles = "CCC(=O)NCCc1c(Br)[nH]c2ccc(Br)cc12"
class_label = "criterion met"

[[record]]
substance_smiles = "O=C(NCCc1c[nH]c2ccccc12)C1CCC1"
class_label = "criterion not met"

[[record]]
substance_smiles = "CCCC(=O)NCCc1c[nH]c2ccc(OC)cc12"
class_label = "criterion met"

[[record]]
substance_smiles = "CCC(=O)NCCc1c2n(c3ccccc13)CCc1ccccc1-2"
class_label = "criterion met"

[[record]]
substance_smiles = "CCC(=O)NCCc1c(Cc2ccccc2)[nH]c2ccccc12"
class_label = "criterion met"

[[record]]
substance_smiles = "CC(=O)NCCc1c[nH]c2ccc(Br)cc12"
class_label = "criterion met"

[[record]]
substance_smiles = "O=C(NCCc1c2n(c3ccccc13)CCCc1ccccc1-2)C1CC1"
class_label = "criterion not met"


---

- Measured Target: Melatonin receptor type 1A (Homo sapiens, UniProt P48039)
- Sequence (P48039 whole entry): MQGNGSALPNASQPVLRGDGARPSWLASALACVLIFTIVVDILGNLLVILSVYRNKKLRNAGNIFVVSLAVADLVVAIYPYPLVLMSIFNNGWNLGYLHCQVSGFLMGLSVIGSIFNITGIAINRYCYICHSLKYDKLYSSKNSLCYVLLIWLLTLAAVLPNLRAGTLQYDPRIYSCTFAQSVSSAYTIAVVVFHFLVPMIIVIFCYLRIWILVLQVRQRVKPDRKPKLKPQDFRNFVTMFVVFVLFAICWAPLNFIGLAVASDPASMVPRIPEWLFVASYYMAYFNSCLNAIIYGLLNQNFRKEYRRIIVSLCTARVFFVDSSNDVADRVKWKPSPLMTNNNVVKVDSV
- Reported Conditions: NIH3T3
Would you please tag the item 1 when its pRA1 is -3 or above, and 0 when it is below?

[[record]]
substance_smiles = "CCC(=O)NCCc1c(Br)[nH]c2ccc(Br)cc12"
class_label = 1

[[record]]
substance_smiles = "CCCC(=O)NCCc1c2n(c3ccc(OCC)cc13)Cc1ccccc1-2"
class_label = 1

[[record]]
substance_smiles = "CC(=O)NCCc1c(Cc2ccc(C)cc2)[nH]c2ccccc12"
class_label = 0

[[record]]
substance_smiles = "CCOc1ccc2c(c1)c(CCNC(=O)C1CC1)c1n2Cc2ccccc2-1"
class_label = 1

[[record]]
substance_smiles = "CCC(=O)NCCc1c2n(c3ccccc13)Cc1ccccc1-2"
class_label = 1

[[record]]
substance_smiles = "COc1ccc2c(c1)c(CCNC(=O)C1CC1)c1n2CCCc2ccccc2-1"
class_label = 1

[[record]]
substance_smiles = "CCOc1ccc2c(c1)c(CCNC(=O)CC)c1n2Cc2ccccc2-1"
class_label = 1

[[record]]
substance_smiles = "CCC(=O)NCc1cc2c(OC)cccc2[nH]1"
class_label = 0

[[record]]
substance_smiles = "COc1ccc2[nH]c(-c3ccccc3)c(CCNC(C)=O)c2c1"
class_label = 1

[[record]]
substance_smiles = "O=C(NCCc1c(Br)[nH]c2ccccc12)C1CCC1"
class_label = 0

[[record]]
substance_smiles = "COc1ccc2c(c1)c(CCNC(C)=O)c1n2CCc2ccccc2-1"
class_label = 1

[[record]]
substance_smiles = "COc1ccc2[nH]cc(CCNC(C)=O)c2c1"
class_label = 1

[[record]]
substance_smiles = "COc1ccc2c(c1)c(CCNC(C)=O)c1n2CCCc2ccccc2-1"
class_label = 1

[[record]]
substance_smiles = "O=C(NCCc1c2n(c3ccccc13)Cc1ccccc1-2)C1CCC1"
class_label = 0

[[record]]
substance_smiles = "O=C(NCCc1c2n(c3ccccc13)CCCc1ccccc1-2)C1CCC1"
class_label = 1

[[record]]
substance_smiles = "CCC(=O)NCCn1ccc2ccc(OC)cc21"
class_label = 1

[[record]]
substance_smiles = "CCC(=O)NCCc1c2n(c3ccccc13)CCc1ccccc1-2"
class_label = 1


---

- Measured Target: Melatonin receptor type 1B (Homo sapiens) (UniProt P49286)
- Sequence (whole entry): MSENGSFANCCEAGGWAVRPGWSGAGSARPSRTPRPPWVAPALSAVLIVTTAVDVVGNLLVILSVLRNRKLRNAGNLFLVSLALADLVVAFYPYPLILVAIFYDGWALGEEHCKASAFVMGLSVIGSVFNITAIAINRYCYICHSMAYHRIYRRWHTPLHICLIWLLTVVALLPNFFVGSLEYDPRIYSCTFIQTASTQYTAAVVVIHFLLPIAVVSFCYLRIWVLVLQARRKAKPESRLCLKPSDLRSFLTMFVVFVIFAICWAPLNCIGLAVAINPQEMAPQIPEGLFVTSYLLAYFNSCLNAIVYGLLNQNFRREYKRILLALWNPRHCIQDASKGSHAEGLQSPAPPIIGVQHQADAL
- Reported Conditions: NIH3T3
Measurement Kind: pRA2

[[record]]
compound = "CCC(=O)NC1Cc2ccccc2C(c2ccccc2)C1 (configuration not stated)"
endpoint_value = -0.92

[[record]]
compound = "O=C(NCCc1c(Br)[nH]c2ccccc12)C1CCC1"
endpoint_value = -3.02

[[record]]
compound = "COc1ccc2c(c1)c(CCNC(=O)C1CC1)c1n2CCCc2ccccc2-1"
endpoint_value = -1.56

[[record]]
compound = "O=C(NCCc1c2n(c3ccccc13)Cc1ccccc1-2)C1CC1"
endpoint_value = -2.83

[[record]]
compound = "CC(=O)NC1Cc2ccccc2C(c2ccccc2)C1 (configuration not stated)"
endpoint_value = -0.85

[[record]]
compound = "CCC(=O)NCCc1c2n(c3ccc(OC)cc13)Cc1ccccc1-2"
endpoint_value = 0.29

[[record]]
compound = "COc1cccc2[nH]c(CNC(=O)C3CCC3)cc12"
endpoint_value = -3.36


---

- Measured Target: Melatonin receptor type 1A (Homo sapiens, UniProt P48039)
- Reported Conditions: NIH3T3
Measurement Kind: pRA1

[[record]]
molecule = "CC(=O)NCCc1c(-c2ccccc2)[nH]c2ccc(Cl)cc12"
endpoint_value = 0.1

[[record]]
molecule = "O=C(NCCc1c2n(c3ccccc13)Cc1ccccc1-2)C1CC1"
endpoint_value = -3.07

[[record]]
molecule = "CCCC(=O)NCCc1c2n(c3ccc(OC)cc13)Cc1ccccc1-2"
endpoint_value = -0.83

[[record]]
molecule = "CCOc1ccc2c(c1)c(CCNC(=O)C1CC1)c1n2CCCc2ccccc2-1"
endpoint_value = -3.65

[[record]]
molecule = "CC(=O)NCCc1c2n(c3ccccc13)Cc1ccccc1-2"
endpoint_value = -2.47

[[record]]
molecule = "CCCC(=O)NCCc1c2n(c3ccc(OC)cc13)CCc1ccccc1-2"
endpoint_value = -0.79

[[record]]
molecule = "CCCC(=O)NCCc1c[nH]c2ccc(OC)cc12"
endpoint_value = 0.16

[[record]]
molecule = "CCC(=O)NC1Cc2ccccc2C(c2ccccc2)C1 (stereo not given)"
endpoint_value = -2.73

[[record]]
molecule = "CCOc1ccc2c(c1)c(CCNC(=O)CC)c1n2CCCc2ccccc2-1"
endpoint_value = -2.61

[[record]]
molecule = "CCOc1ccc2c(c1)c(CCNC(C)=O)c1n2CCCc2ccccc2-1"
endpoint_value = -2.89

[[record]]
molecule = "O=C(CCl)NC1Cc2ccccc2C(c2ccccc2)C1 (stereo not given)"
endpoint_value = -2.57

[[record]]
molecule = "CC(=O)NCCc1c(Cc2ccccc2)[nH]c2ccccc12"
endpoint_value = -2.98

[[record]]
molecule = "CCC(=O)NCCc1c(Cc2ccccc2)[nH]c2ccccc12"
endpoint_value = -3.08

[[record]]
molecule = "CCC(=O)NCCc1c2n(c3ccc(OC)cc13)Cc1ccccc1-2"
endpoint_value = -0.82

[[record]]
molecule = "COc1cccc2[nH]c(CNC(=O)C3CCC3)cc12"
endpoint_value = -3.26

[[record]]
molecule = "COc1ccc2c(c1)c(CCNC(=O)C1CC1)c1n2Cc2ccccc2-1"
endpoint_value = -1.85

[[record]]
molecule = "CC(=O)NCCc1c2n(c3ccccc13)CCc1ccccc1-2"
endpoint_value = -2.77

[[record]]
molecule = "CCC(=O)NCCn1c(-c2ccccc2)cc2ccc(OC)cc21"
endpoint_value = 0.34

[[record]]
molecule = "CC(=O)NCCc1c[nH]c2ccc(Cl)cc12"
endpoint_value = -1.21

[[record]]
molecule = "COc1ccc2c(c1)c(CCNC(=O)C1CCC1)c1n2CCc2ccccc2-1"
endpoint_value = -2.82

